The reported numbers originate from a melting point compilation (Tetko et al.; mined from patent text by program, amines drawn as free bases though some values may be those of a salt).

Measured melting point by item

Example entries and their recorded answers appear below.
[[record]]
compound = "COc1ccc(-n2nc(Sc3ccc(C)cc3)c(C)c(C#N)c2=O)cc1"
value_reported = "148 to 149 °C"

[[record]]
compound = "CNC(=O)c1ccc(C(=O)Nc2cccc(C3=NC(C)(C)Cc4cc(OC)c5c(c43)CC(C)(C)O5)c2)cc1"
value_reported = "310 to 312 °C"

[[record]]
compound = "c1ccc2cc3[nH]c(SCc4ncc[nH]4)nc3cc2c1"
value_reported = "172 °C"

[[record]]
compound = "CC(C)C(NC(=O)Cn1cc(Cc2ccc(C(F)(F)F)cc2)cc(NC(=O)OCc2ccccc2)c1=O)C(=O)C(F)(F)F (stereo not given)"
value_reported = "61 to 65 °C"

[[record]]
compound = "COc1ccc(S(=O)(=O)N2CC3CCC(C3)C2)c2ccccc12"
value_reported = "136 to 139 °C"

[[record]]
compound = "CC(C)n1nc(-c2sc(C(=O)N(C)C)nc2-c2ccccc2)ccc1=O"
value_reported = "141 to 144 °C"

[[record]]
compound = "COc1ccc(N2C(=O)CC(Cl)C2=O)cc1 (stereo not given)"
value_reported = "142 to 143 °C"

[[record]]
compound = "OCc1ccc(-c2cccc3cncn23)cc1"
value_reported = "137 to 138 °C"

[[record]]
compound = "Cc1c(F)cccc1Cc1c(-c2ccccc2)c2cc(C=O)cnn2c1C(=O)N1CCN(C(=O)OC(C)(C)C)CC1"
value_reported = "208 to 209 °C"


Qu. Would you kindly share the measured melting point for Oc1ccc2nc(Nc3ccccc3)cnc2c1 ?
Ans. 211 to 213 °C

###

Measured melting point by item

Qu. Would you kindly share the measured melting point for COc1nc(N)nc2oc(C)cc12 ?
Ans. 173 to 175 °C

###

Measured melting point by item

[[record]]
chemical_structure = "CC(=O)N1CCC(c2nccc3occc23)CC1"
value_reported = "108 to 110 °C"

[[record]]
chemical_structure = "CN(C)c1nc(N)c(C#N)nc1C#N"
value_reported = "201 to 202 °C"


Below: the item to evaluate.
Qu. Would you kindly share the measured melting point for CC(=O)C1=C(O)C(=C(C)Nc2ccc(OC(N)=O)cc2)C(=O)OC1=O ?
Ans. 213 to 215 °C

###

readout-label: melting point

Example entries and their recorded answers appear below.
[[record]]
compound = "O=C(O)COc1ccc2c(c1)CCc1sc(SC(c3ccccc3)c3ccccc3)nc1-2"
value_reported = "193 to 195 °C"

[[record]]
compound = "C=CCOc1nc(N(CC=C)CC=C)nc(N2CCc3ccccc3CC2)c1C#N"
value_reported = "126 to 130 °C"


Below: the item to evaluate.
Qu. Would you kindly share the measured melting point for Cc1ccccc1C1C(=O)CC2CCCCC2C1=O (stereo not drawn) ?
Ans. 165 to 167 °C

###

Measured melting point by item

[[record]]
compound = "O=C(O)C(=O)N1CCC(Cc2ccc(F)cc2)CC1"
value_reported = "152 to 154 °C"

[[record]]
compound = "COc1cc(CCCCC2OC(=O)NC2=O)ccc1OCc1ccccc1 (stereo not drawn)"
value_reported = "92 to 93 °C"


Qu. Would you kindly share the measured melting point for Cc1cccc(NC(=O)NC2N=C(c3ccccc3F)c3ccccc3N(Cc3ncccc3C(=O)N3CCCC3)C2=O)c1 (racemic) ?
Ans. 153 to 155 °C

###

Measured melting point by item

Example entries and their recorded answers appear below.
[[record]]
compound = "c1ccc(-c2ccc(-c3nc(COc4ccc(CCCn5ccnc5)cc4)co3)s2)cc1"
value_reported = "128 to 129 °C"

[[record]]
compound = "COc1cccc(CCC(c2ccccc2)C(O)c2ccc(O)cc2)c1 (stereo not drawn)"
value_reported = "100 to 103 °C"

[[record]]
compound = "C[C@@H](Oc1cc(-c2cnn(C3CCNCC3)c2)cnc1N)c1c(Cl)ccc(F)c1Cl"
value_reported = "194 °C"

[[record]]
compound = "Cc1c(Cl)cccc1C(=N)NO"
value_reported = "119 to 121 °C"

[[record]]
compound = "CNS(=O)(=O)c1ccc(-c2cc(N3CCOCC3)cc(Nc3ccc(OC(F)(F)F)cc3)n2)cc1"
value_reported = "234 to 236 °C"


Qu. Would you kindly share the measured melting point for CN(C)c1ccc(C=C2Cc3cc4c(cc3C2=O)CCCC4)cc1 ?
Ans. 161 to 163 °C

Qu. Would you kindly share the measured melting point for CC(C)[C@H](NC(=O)OC(C)(C)C)C(=O)C1CC(=O)NC1=O (stereo partly drawn) ?
Ans. 123 to 124 °C

Qu. Would you kindly share the measured melting point for CCCCC(C(=O)N1CCCCC1)c1ccc(C(=O)O)cc1 (stereo not drawn) ?
Ans. 142 °C

###

readout-label: melting point

Example entries and their recorded answers appear below.
[[record]]
compound = "COc1ccccc1S(=O)(=O)OC(Br)C(=O)c1ccccc1 (stereo not given)"
value_reported = "90 to 91 °C"

[[record]]
compound = "C#CCN(c1ccc(C(=O)NC(CCc2nnn[nH]2)C(=O)O)nc1)C1CCc2cc3nc(C)[nH]c(=O)c3cc21 (mixture of isomers)"
value_reported = "189 to 191 °C"

[[record]]
compound = "O=C(Nc1ccc(Cl)c(Cl)c1)NS(=O)(=O)c1ccccc1"
value_reported = "194 to 195 °C"


Qu. Would you kindly share the measured melting point for Cc1ccc(C(O)c2c(OCc3ccccc3)c(=O)ccn2CCO)cc1 (stereo not given) ?
Ans. 206 to 207 °C

Qu. Would you kindly share the measured melting point for NC(=O)c1nnn(Cc2ccc(S(=O)c3ccc(Cl)cc3)c(Cl)c2)c1N (stereo not given) ?
Ans. 237 to 238 °C

###

readout-label: melting point

[[record]]
compound = "CC(C)(C)OC(=O)NS(=O)(=O)c1ccc(Cl)cc1"
readout_label = "melting point"
value_reported = "98 to 99 °C"

[[record]]
compound = "CCCCCCCCNC1=NS(=O)(=O)c2cc(Cl)cnc2N1"
readout_label = "melting point"
value_reported = "170 to 175 °C"

[[record]]
compound = "O=C1CCC(N2Cc3c(OCc4ccc5ncccc5c4)cccc3C2=O)C(=O)N1 (stereo not given)"
readout_label = "melting point"
value_reported = "267 to 269 °C"


Qu. Would you kindly share the measured melting point for COc1cc2c(c3c1OC(C)(C)C3)C(c1cccc(N3C(=O)c4ccccc4C3=O)c1)=NC(C)(C)C2 ?
Ans. 162 to 168 °C

Qu. Would you kindly share the measured melting point for COc1ccc2cc(C(=O)C34CC5CC(CC(C5)C3)C4)oc2c1 ?
Ans. 99 to 101 °C

###

readout-label: melting point

[[record]]
compound = "CC(C)(C)OC(=O)NCCCON=C(c1ccccc1)c1cc2ccncc2[nH]1"
value_reported = "52 to 58 °C"

[[record]]
compound = "CCCCOC(=O)COc1cc(F)c(-c2nn(C)c(C(F)(F)F)c2Cl)cc1[N+](=O)[O-]"
value_reported = "65 °C"

[[record]]
compound = "O=S(=O)(Cl)c1ccc(Oc2ccc(F)cc2)cc1"
value_reported = "76 °C"

[[record]]
compound = "CC(C)CC(CS)C(=O)NCC(=O)NC(CCCNC(=N)N)C(=O)O (centres undefined)"
value_reported = "132 to 146 °C"

[[record]]
compound = "CC(C)N(C(=O)Cl)c1ccccc1"
value_reported = "89 to 90 °C"

[[record]]
compound = "O=C(C=Cc1ccccc1)SC(Cn1ccnc1)c1ccc(Cl)cc1Cl (centres undefined)"
value_reported = "139 to 141 °C"

[[record]]
compound = "O=C(Nc1cccc(C(F)(F)F)c1)c1cccc2cc(Oc3cc(COCc4ccccc4)ncn3)ccc12"
value_reported = "123 to 124 °C"

[[record]]
compound = "NC1(Cl)C=CN=C(Cl)N1 (centres undefined)"
value_reported = "55 to 56 °C"

[[record]]
compound = "COc1ccc(-c2ccc(NCc3ccccc3)nn2)cc1OC1CCCC1"
value_reported = "116 °C"

[[record]]
compound = "Cc1cn(-c2cc(N)cc(C(F)(F)F)c2)cn1"
value_reported = "123 to 124 °C"


Qu. Would you kindly share the measured melting point for COc1ccc(C(=O)O)c(Cl)c1Cl ?
Ans. 224 to 226 °C

Qu. Would you kindly share the measured melting point for CSC(NCc1ccc(N)cc1)=C(C#N)C#N ?
Ans. 100 to 102 °C

Qu. Would you kindly share the measured melting point for Cn1c(-c2ccccc2)nc2nc(-c3ccc(Cl)cc3)nn2c1=S ?
Ans. 267 to 270 °C

Qu. Would you kindly share the measured melting point for O=[N+]([O-])c1cnc2ccc(S)cc2c1-c1ccccc1 ?
Ans. 160 to 163 °C

Qu. Would you kindly share the measured melting point for C#CC(CC(=O)OC)c1ccc(OC)c(OC2CCCC2)c1 (racemic) ?
Ans. 41 to 42 °C

Qu. Would you kindly share the measured melting point for COc1ccccc1N1CCN(c2cc3ccccc3cn2)CC1 ?
Ans. 112 to 114 °C

Qu. Would you kindly share the measured melting point for O=C(O)COc1ccc(SCc2ccc(OCc3ccc(F)cc3C(F)(F)F)cc2)c2c1CCC2 ?
Ans. 125 to 127 °C

Qu. Would you kindly share the measured melting point for COc1cc(COc2ncccc2CC#N)ccc1OCc1nc(-c2ccccc2)oc1C ?
Ans. 108 to 109 °C

Qu. Would you kindly share the measured melting point for O=C(N[C@H]1CC[C@H](CCN2CCC(c3cccc4c3CCO4)CC2)CC1)c1ccnc2ccccc12 ?
Ans. 211 °C

Qu. Would you kindly share the measured melting point for CNC(Cc1ccccc1NC(=O)C(C)(C)C)c1ccccc1C (centres undefined) ?
Ans. 77 to 79 °C

Qu. Would you kindly share the measured melting point for O=C(O)CNC(=O)c1cccc(NC(=O)C(CS)Cc2ccccc2)c1 (centres undefined) ?
Ans. 80 to 83 °C

Qu. Would you kindly share the measured melting point for COc1ccccc1NC(=O)C(C)(C)CCCOc1cc(C)ccc1C ?
Ans. 47 to 48 °C
